- System: Wolbachia pipientis
- Assay: Anti-Wolbachia Cell-Based Screen
- Assay type: functional
- Parameters: scale not given: in the data most compounds retested in dose-response had high values
- Condition details: 5 µM
Among all 48,000 compounds or so, about 13,000 (27%) showed an effect of 50% or more. This is one part of the list.
Percent Effect overview
State the value, then name its unit.

Some compounds with recorded Percent Effect:
Cc1nc(CN2CCCC(NCC(=O)Nc3cccnc3)C2)no1 (configuration not stated) | -1.962%
CSc1nccn1-c1cccc(C(=O)NCC2CC2)c1 | -0.4347%

Now for a further compound.
Exam item: Quick one: Percent Effect for Cc1nc(CN2CCCC(NCCOc3ccccc3)C2)no1 (configuration not stated) ?
Marked response: -9.342%
